# Tested on: velvetleaf (Abutilon theophrasti)
# Test Details: Test G Pre-Emergence Protocol
# Format: in vivo
# Condition Description: Abutilon theophrasti, pre-emergence, 312 h, 250 g ai/ha, evaluated after 13 days, read-out: Velvetleaf damage rating (100=total damage to plant; 0=no damage to plant)
Consider the cut-off 20%. If the recorded pest or weed control at 250 g/ha is strictly smaller, the label is 1 (yes); if not, the label is 0 (no).

1. Cc1cc(C(F)(F)F)ccc1NC(=O)[C@H]1C(=O)N(C)C[C@@H]1c1ccc(C(F)(F)F)cc1 (racemic) [Compound 1411]; 1 (yes)
2. C=CCc1c(Cl)cccc1NC(=O)[C@H]1C(=O)N(C)C[C@@H]1c1ccc(C(F)(F)F)cc1 (racemic) [Compound 1440]; 1 (yes)
3. CN1C[C@@H](c2cncc(F)c2)[C@H](C(=O)Nc2cccc(F)c2F)C1=O (racemic) [Compound 1482]; 1 (yes)
4. Cc1csc(NC(=O)[C@@H]2C(=O)N(C)C[C@H]2c2ccc(C(F)(F)F)cc2)c1C#N (racemic) [Compound 1576]; 1 (yes)
5. CN1C[C@H](c2ccc(C(F)(F)F)cc2)[C@@H](C(=O)Nc2ncc(F)cc2F)C1=O (racemic) [Compound 1452]; 0 (no)
6. Cc1n[nH]cc1NC(=O)[C@@H]1C(=O)N(C)C[C@H]1c1ccc(C(F)(F)F)cc1 (racemic) [Compound 1634]; 1 (yes)
7. CN1C[C@@H](c2ccc(C(F)(F)F)cc2)[C@H](C(=O)Nc2cccnc2Cl)C1=O (racemic) [Compound 1517]; 1 (yes)
8. COc1c(Cl)ccc([C@H]2CN(C)C(=O)[C@@H]2C(=O)Nc2cccc(F)n2)c1F (racemic) [Compound 1477]; 1 (yes)

In: State whether 20% exceeds pest or weed control at 250 g/ha recorded for CC(O)c1ccccc1NC(=O)[C@H]1C(=O)N(C)C[C@@H]1c1cccc(C(F)(F)F)c1 (mixture of isomers) [Compound 1783] .
Out: 0 (no)

In: State whether 20% exceeds pest or weed control at 250 g/ha recorded for Cc1cc(NC(=O)[C@@H]2C(=O)N(C)C[C@H]2c2ccc(C(F)(F)F)cc2)[nH]n1 (racemic) [Compound 1626] .
Out: 1 (yes)

In: Record Cc1cc(F)ncc1NC(=O)[C@H]1C(=O)N(C)C[C@@H]1c1ccc(C(F)(F)F)cc1 (racemic) [Compound 1733] : is its pest or weed control at 250 g/ha strictly below 20%?
Out: 0 (no)

====

# Tested on: Galium (catchweed bedstraw, Galium aparine)
# Test Details: Test A postemergence
# Type: in vivo
# Condition Description: 500 g ai/ha, postemergence; 0 to 100 scale, 0 no effect, 100 complete control
Measured Parameter: Plant response rating, Galium
Give bare numbers.

The cases that follow already have their Plant response rating, Galium on record.
1) CN1CC(c2cccc(OC(F)(F)C(F)F)c2)C(C(=O)Nc2cccc(F)c2F)C1=O (stereo not shown); 70
2) CN1CC(c2ccc3c(c2)OC(F)(F)O3)C(C(=O)Nc2cccc(F)c2F)C1=O (stereo not shown); 60
3) O=C1NCC(c2ccc(Br)cc2)C1C(=O)Nc1cccc(F)c1F (stereo not shown); 50
4) CN1CC(c2ccc(F)cc2)C(C(=O)Nc2ccc(F)cc2F)C1=O (stereo not shown); 40
5) CC(C)Oc1cccc(C2CN(C)C(=O)C2C(=O)Nc2ccc(F)cc2F)c1 (stereo not shown); 70
6) CN1CC(c2ccc(C(F)(F)F)c(F)c2)C(C(=O)Nc2ccccc2F)C1=O (stereo not shown); 50

Now for a further compound.
In: Name the reported Plant response rating, Galium value associated with the compound CN1CC(c2ccc(F)cc2)C(C(=O)Nc2cccc(F)c2F)C1=O (stereo not shown)
Out: 50

====

So I've got a bunch of compounds here, and I need their Plant response rating, Nutsedge, Yellow values.
# System: nutsedge, yellow (yellow nutsedge, Cyperus esculentus)
# Test Details: Test C preemergence
# Format: in vivo
# Condition Description: 250 g ai/ha, scale 0 to 100, 0 no effect, 100 complete control
Answers are plain numbers.

1. O=C1NCC(c2ccc(Br)cc2)C1C(=O)Nc1cccc(F)c1F (stereo not shown); 0
2. O=C1NCC(c2cccc(C(F)(F)F)c2F)C1C(=O)Nc1cccc(F)c1F (stereo not shown); 0
3. CN1CC(c2cccc(OC(F)F)c2)C(C(=O)Nc2ccccc2S(C)(=O)=O)C1=O (stereo not shown); 40

In: Recorded Plant response rating, Nutsedge, Yellow for Cc1ccc(C2CN(C)C(=O)C2C(=O)Nc2ccccc2F)cc1F (stereo not shown) with nutsedge, yellow (yellow nutsedge, Cyperus esculentus), please?
Out: 0

====

# Tested on: ryegrass, Italian (Italian ryegrass, Lolium multiflorum)
# Test Details: Test A postemergence
# Assay type: in vivo
# Condition Description: Lolium multiflorum, post-emergence, 240 h, 500 g ai/ha, postemergence; 0 to 100 scale, 0 is no effect, 100 is complete control; read-out: Ryegrass, Italian plant response rating
Consider the following compounds; for each one, report its pest or weed control at 500 g/ha.
Numbers only, in %.

1. N#Cc1ccc([C@H]2CNC(=O)[C@@H]2C(=O)Nc2cccc(F)c2F)cc1; 0
2. Cc1cc([C@H]2CN(C)C(=O)[C@@H]2C(=O)Nc2ccccc2F)no1; 0
3. N#Cc1cc([C@H]2CNC(=O)[C@@H]2C(=O)Nc2ccccc2F)ccc1F; 20
4. CN1C[C@H](c2ccc(F)c(F)c2)[C@@H](C(=S)Nc2ccccc2F)C1=O (racemic); 0
5. O=C1NC[C@H](c2ccc3c(c2)OCO3)[C@H]1C(=O)Nc1cccc(F)c1C(F)(F)F; 0

In: Look at this compound and give its reported pest or weed control at 500 g/ha. Cc1ccc([C@H]2CN(C)C(=O)[C@]2(O)C(=O)Nc2cccc(F)c2F)cc1 (racemic)
Out: 20

====

# Tested on: barnyardgrass (Echinochloa crus-galli)
# Test Details: Test B flooded paddy test
# Format: in vivo
# Condition Description: Echinochloa crus-galli, Flood, 250 g ai/ha; scale of 0 to 100 where 0 is no effect and 100 is complete control; read-out: Barnyardgrass plant response rating
Measured Parameter: pest or weed control at 250 g/ha (%)
Give bare numbers, in %.

Sample answers from the record:
1. CN1C[C@H](c2cccc(OC(F)(F)C(F)F)c2)[C@@H](C(=O)Nc2ccccc2S(C)(=O)=O)C1=O; 50
2. CN1C[C@H](c2cc(F)cc(F)c2)[C@@H](C(=O)Nc2ccc(C(F)(F)F)cc2)C1=O; 0
3. CC(C)Oc1ccc([C@H]2CN(C)C(=O)[C@@H]2C(=O)Nc2ccc(F)cc2F)cc1; 0

Dear reader, for each entry below, please note its pest or weed control at 250 g/ha.
1. CN1C[C@H](c2cc(F)cc(C(F)(F)F)c2)[C@@H](C(=O)Nc2ccc(F)c(F)c2F)C1=O
2. CSc1ccccc1NC(=O)[C@H]1C(=O)NC[C@@H]1c1cc(F)cc(Cl)c1
3. CN1C[C@H](c2cc(F)c(C(F)(F)F)c(F)c2)[C@@H](C(=O)Nc2ccccc2F)C1=O
4. CN1C[C@H](c2cc(F)c(F)c(F)c2)[C@@H](C(=O)Nc2cccc(F)c2F)C1=O

Out:
1. 70
2. 15
3. 55
4. 90

In: Need pest or weed control at 250 g/ha of O=C1NC[C@H](c2ccc3c(c2)OCO3)[C@H]1C(=O)Nc1cccc(F)c1F , thanks.
Out: 60

====

Give measured Plant response rating, Rice for each item. Keep answers brief.
# System: rice (Oryra sativa)
# Test Details: Test B flooded paddy test
# Format: in vivo
# Condition Description: Flood, 250 g ai/ha; 0 to 100 scale where 0 is no effect and 100 is complete control; 13 to 15 d
Give bare numbers.

Please review the following examples before continuing.
1) CCc1ccc(C2CNC(=O)C2C(=O)Nc2cccc(F)c2F)cc1 (centres unmarked); 0
2) COCc1cccc(C2CNC(=O)C2C(=O)Nc2cccc(F)c2F)c1 (centres unmarked); 20
3) O=C1NCC(c2cc(Cl)sc2Cl)C1C(=O)Nc1cccc(F)c1F (centres unmarked); 0
4) O=C1NCC(c2cccc(Br)c2)C1C(=O)Nc1ccc(F)c(F)c1F (racemic); 0

// next item, Plant response rating, Rice requested
In: Value wanted: Plant response rating, Rice (rice (Oryra sativa)) of entry CC(C)Oc1cccc(C2CN(C)C(=O)C2C(=O)Nc2ccc(F)cc2F)c1 (centres unmarked)
Out: 0

====

# System: giant foxtail (Setaria faberii)
# Test Details: Test A preemergence
# Type: in vivo
# Condition Description: Setaria faberi, pre-emergence, 240 h, 125 g ai/ha, preemergence; visual rating after approx. 10 d; 0 to 100 scale where 0 is no effect and 100 is complete control; read-out: Plant response rating, Foxtail, Giant
Measured Parameter: pest or weed control at 125 g/ha (%)
One number for each entry, in %.

1. O=C1NC[C@H](c2cccc3c2OC(F)(F)O3)[C@H]1C(=O)Nc1ccccc1F; 70
2. CCc1cc(CC)cc([C@H]2CN(C)C(=O)[C@@H]2C(=O)Nc2ccccc2C(F)(F)F)c1; 90
3. Cc1cc([C@H]2CNC(=O)[C@@H]2C(=O)Nc2ccc(F)cc2F)ccc1Cl; 50

Please give pest or weed control at 125 g/ha, item by item, for the list that follows.
1. C=CCN1C[C@H](c2ccc(OC)c(F)c2)[C@@H](C(=O)Nc2ccccc2C(F)(F)F)C1=O
2. Cc1ccc([C@H]2CN(C)C(=O)[C@@H]2C(=O)Nc2cccc(F)c2C)cc1C
3. CCc1ccc([C@H]2CNC(=S)[C@@H]2C(=O)Nc2cccc(F)c2C)cc1
4. CSc1ccccc1NC(=O)[C@H]1C(=O)N(C)CC[C@@H]1c1ccc2c(c1)OC(F)(F)O2
5. O=C1NC[C@H](c2ccc3c(c2)OCO3)[C@H]1C(=O)Nc1cccc(F)c1F

Out:
1. 0
2. 90
3. 60
4. 0
5. 40

Provide the reported pest or weed control at 125 g/ha of each entry below, same order.
1. CN1CC(c2cccc(OC/C=C/Cl)c2)C(C(=O)Nc2cccc(F)c2F)C1=O (stereo not shown)
2. CN1C[C@H](c2ccc(C(F)(F)F)cc2)[C@@H](C(=O)Nc2ccccc2C2CC2)C1=O

Out:
[50, 90]
